# Test system: T47D STAT5-luciferase reporter, prolactin-induced, luminescence
# Method Notes: reduction of prolactin-induced STAT5 luciferase – cell-based, luminescence, T47D, assay provider, late-stage follow-up (AID 652026)
# Assay Conditions: at 10 µM; active compounds read low
Active and inactive are the calls of the source.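 The calls were made as follows: active = STAT5 reporter signal fold change below 0.5 at a 10 µM dose; inactive = the rest.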
Property Measured: fold change

{"columns": ["Smiles", "Property Measured", "Result"],
 "data": [
  ["CN1/C(=C\\C(=O)Cn2nnc(-c3ccccc3)n2)C(C)(C)c2ccccc21", "fold change", "0.724 (inactive)"],
  ["CN1/C(=C\\C(=O)C[n+]2ccccc2)C(C)(C)c2ccccc21", "fold change", "0.777 (inactive)"],
  ["CN1/C(=C\\C(=O)CN2C(=O)c3ccccc3CS2(=O)=O)C(C)(C)c2ccccc21", "fold change", "0.766 (inactive)"]
]}

Where do these numbers come from? They come from PubChem BioAssay AID652026.
